# System: HeLa Cells
# assay info: Transfection of HeLa cells with DOTMA/SEQ ID NO: 72/peptide compared with Lipofectamine 2000
# Format: cell-based
# assay setup: 0.3 μL of DOTMA/SEQ ID NO: 72/Peptide in well of a 96 well plate; fusogenic peptide 0.1 mg/mL
measure: RF (Relative Fluorescence), DOTMA/SEQ ID NO: 72/Peptide, HeLa Cells
A bare number is all that is needed in reply.

454 (TGLSCLQRFTTM; Peptidic transfection agent) [compound 454] | 27412
367 (TDIPPCPHGWISLWK; Peptidic transfection agent) [compound 367] | 23001

// RF (Relative Fluorescence), DOTMA/SEQ ID NO: 72/Peptide, HeLa Cells value for 381 (TAGSCL; Peptidic transfection agent) [compound 381] : 27007

// RF (Relative Fluorescence), DOTMA/SEQ ID NO: 72/Peptide, HeLa Cells value for 379 (TAGSCLRKF; Peptidic transfection agent) [compound 379] : 39036

// RF (Relative Fluorescence), DOTMA/SEQ ID NO: 72/Peptide, HeLa Cells value for 353 (KKQRFRHRNRKGYRSQ; Peptidic transfection agent) [compound 353] : 36882
